- Target Entity: Poly [ADP-ribose] polymerase 1 (Homo sapiens)
- Sequence (P09874 whole entry): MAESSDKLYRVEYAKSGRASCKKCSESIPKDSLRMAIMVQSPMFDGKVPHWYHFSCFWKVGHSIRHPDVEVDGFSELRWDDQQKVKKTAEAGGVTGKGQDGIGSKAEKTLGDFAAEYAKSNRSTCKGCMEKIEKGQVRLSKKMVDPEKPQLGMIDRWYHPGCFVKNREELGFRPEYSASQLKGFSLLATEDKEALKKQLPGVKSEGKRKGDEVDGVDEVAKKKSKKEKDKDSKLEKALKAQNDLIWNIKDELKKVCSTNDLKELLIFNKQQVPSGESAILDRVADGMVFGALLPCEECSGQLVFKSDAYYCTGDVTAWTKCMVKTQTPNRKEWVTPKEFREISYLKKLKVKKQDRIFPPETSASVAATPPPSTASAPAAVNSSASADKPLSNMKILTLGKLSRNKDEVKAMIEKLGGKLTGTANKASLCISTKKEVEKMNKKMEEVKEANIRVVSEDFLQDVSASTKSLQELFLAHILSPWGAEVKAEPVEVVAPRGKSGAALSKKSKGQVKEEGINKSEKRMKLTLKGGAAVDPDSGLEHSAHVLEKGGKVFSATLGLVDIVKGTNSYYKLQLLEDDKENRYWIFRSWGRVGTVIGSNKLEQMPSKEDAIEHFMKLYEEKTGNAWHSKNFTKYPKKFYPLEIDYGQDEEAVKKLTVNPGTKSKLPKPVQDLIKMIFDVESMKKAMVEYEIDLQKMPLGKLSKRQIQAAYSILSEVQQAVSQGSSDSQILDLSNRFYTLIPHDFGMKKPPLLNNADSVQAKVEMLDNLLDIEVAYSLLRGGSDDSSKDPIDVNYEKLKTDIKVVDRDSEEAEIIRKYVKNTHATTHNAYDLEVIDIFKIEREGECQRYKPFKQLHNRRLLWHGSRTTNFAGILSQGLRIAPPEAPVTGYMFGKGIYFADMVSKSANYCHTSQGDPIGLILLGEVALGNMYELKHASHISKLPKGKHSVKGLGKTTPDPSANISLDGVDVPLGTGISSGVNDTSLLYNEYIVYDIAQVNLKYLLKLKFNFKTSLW
- Protocol Notes: Inhibition of PARP1 (unknown origin) incubated for 60 mins by microplate assay kit method
Property Measured: IC50

Form: Entry = `CCOC(=O)Nc1nc2ccc(-c3cc(Cc4n[nH]c(=O)c5ccccc45)ccc3F)cc2[nH]1` | System = Poly [ADP-ribose] polymerase 1 (Homo sapiens) | IC50 = ____
5 nM

----------
- Target Entity: Bromodomain-containing protein 2 (Homo sapiens, UniProt P25440)
- Sequence (P25440 whole entry): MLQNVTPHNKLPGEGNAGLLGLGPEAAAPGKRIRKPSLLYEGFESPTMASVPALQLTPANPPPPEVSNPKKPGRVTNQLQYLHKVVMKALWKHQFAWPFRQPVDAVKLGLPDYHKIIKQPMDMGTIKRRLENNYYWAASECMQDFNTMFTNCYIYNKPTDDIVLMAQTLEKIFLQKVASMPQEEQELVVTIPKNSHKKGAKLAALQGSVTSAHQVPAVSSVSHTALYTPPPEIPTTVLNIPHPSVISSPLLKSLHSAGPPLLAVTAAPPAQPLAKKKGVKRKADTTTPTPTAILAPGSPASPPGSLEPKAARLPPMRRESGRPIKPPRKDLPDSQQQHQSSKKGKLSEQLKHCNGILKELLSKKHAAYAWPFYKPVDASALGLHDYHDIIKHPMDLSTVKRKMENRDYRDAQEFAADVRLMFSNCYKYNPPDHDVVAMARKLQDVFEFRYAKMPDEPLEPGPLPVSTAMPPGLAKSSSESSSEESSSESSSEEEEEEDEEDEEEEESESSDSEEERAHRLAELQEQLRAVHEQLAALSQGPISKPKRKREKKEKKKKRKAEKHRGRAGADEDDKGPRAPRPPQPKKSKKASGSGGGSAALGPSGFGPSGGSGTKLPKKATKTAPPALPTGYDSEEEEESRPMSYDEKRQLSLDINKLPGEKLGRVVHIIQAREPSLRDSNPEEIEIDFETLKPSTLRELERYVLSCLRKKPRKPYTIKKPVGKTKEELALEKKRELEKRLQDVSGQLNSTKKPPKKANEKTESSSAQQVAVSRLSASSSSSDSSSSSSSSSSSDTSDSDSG
- Protocol Notes: Inhibition of BRD2 (unknown origin)
Property Measured: IC50 (nM)
Quick note: give the figure in nM, leave out the unit.

Need IC50, item `COc1cc(OC)c2c(=O)[nH]c(-c3ccc(OCCOc4ccccc4C(N)=O)cc3)nc2c1`
379

----------
- Target Entity: Poly [ADP-ribose] polymerase 2 (Homo sapiens, UniProt Q9UGN5)
- Sequence (Q9UGN5 whole entry): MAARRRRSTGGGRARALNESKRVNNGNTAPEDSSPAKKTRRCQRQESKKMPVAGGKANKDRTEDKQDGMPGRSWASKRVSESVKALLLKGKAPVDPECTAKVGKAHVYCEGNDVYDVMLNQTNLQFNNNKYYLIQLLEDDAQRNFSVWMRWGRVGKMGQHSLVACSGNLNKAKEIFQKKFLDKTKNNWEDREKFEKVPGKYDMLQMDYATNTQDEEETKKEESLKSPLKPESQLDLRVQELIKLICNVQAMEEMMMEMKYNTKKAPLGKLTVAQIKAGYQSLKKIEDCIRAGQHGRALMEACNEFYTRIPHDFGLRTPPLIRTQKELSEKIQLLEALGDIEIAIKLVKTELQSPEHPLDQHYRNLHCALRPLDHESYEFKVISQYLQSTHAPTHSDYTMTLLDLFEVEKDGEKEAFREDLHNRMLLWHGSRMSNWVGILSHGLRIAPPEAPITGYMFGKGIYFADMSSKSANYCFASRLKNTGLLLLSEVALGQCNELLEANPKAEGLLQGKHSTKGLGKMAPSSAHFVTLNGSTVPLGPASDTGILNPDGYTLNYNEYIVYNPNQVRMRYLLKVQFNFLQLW
Property Measured: IC50 (µM)
Quick note: give the figure in µM, leave out the unit.

Form: Entry = `CCOC(=O)Nc1nc2ccc(-c3cc(Cc4n[nH]c(=O)c5ccccc45)ccc3F)cc2[nH]1` | System = Poly [ADP-ribose] polymerase 2 (Homo sapiens, UniProt Q9UGN5) | IC50 = ____
0.05

----------
- Protocol Notes: Inhibition of porcine brain microtubule polymerization incubated for 105 mins by fluorescent based assay
- Design: species or system Sus scrofa
Property Measured: IC50 (nM)
Quick note: give the figure in nM, leave out the unit.

Need IC50, item `CCOC(=O)Nc1nc2ccc(-c3cc(Cc4n[nH]c(=O)c5ccccc45)ccc3F)cc2[nH]1`
990

----------
- Target Entity: Bromodomain-containing protein 1 (Homo sapiens, UniProt O95696)
- Sequence (O95696 whole entry): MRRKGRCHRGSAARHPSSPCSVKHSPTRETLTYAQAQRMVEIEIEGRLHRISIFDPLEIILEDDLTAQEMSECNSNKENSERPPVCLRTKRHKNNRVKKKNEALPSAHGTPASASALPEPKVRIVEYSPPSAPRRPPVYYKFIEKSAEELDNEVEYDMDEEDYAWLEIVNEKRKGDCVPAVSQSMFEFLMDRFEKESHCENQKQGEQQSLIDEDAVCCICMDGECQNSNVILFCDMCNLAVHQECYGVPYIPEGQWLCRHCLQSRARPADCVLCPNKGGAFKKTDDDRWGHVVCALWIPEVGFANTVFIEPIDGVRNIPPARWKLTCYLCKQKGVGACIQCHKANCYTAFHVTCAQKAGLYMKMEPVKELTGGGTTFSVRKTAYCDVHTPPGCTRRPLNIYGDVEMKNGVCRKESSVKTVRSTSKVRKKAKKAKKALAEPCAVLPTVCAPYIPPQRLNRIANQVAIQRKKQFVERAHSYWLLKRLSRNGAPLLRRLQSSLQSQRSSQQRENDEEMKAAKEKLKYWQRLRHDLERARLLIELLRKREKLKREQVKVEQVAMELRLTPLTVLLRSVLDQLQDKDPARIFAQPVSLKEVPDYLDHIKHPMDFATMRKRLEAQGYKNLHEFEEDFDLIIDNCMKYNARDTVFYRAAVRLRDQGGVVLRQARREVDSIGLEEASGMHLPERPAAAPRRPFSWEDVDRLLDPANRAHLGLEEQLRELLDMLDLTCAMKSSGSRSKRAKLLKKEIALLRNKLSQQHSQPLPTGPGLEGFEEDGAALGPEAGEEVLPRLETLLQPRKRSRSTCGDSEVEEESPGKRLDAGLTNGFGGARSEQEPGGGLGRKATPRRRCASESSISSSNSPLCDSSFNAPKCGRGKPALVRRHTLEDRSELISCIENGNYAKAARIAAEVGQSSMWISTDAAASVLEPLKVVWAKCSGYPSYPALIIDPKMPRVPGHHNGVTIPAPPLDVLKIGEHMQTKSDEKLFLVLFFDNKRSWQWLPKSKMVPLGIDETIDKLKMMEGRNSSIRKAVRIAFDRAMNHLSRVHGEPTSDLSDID
- Protocol Notes: Inhibition of BRD1 (unknown origin)
Property Measured: pIC50
For clarity, pIC50 is expressed as the negative log10 of concentration in mol/L.

Need pIC50, item `COc1cc(OC)c2c(=O)[nH]c(-c3ccc(OCCOc4ccccc4C(N)=O)cc3)nc2c1`
6.36

----------
- Target Entity: Bromodomain-containing protein 4 (Homo sapiens, UniProt O60885)
- Protocol Notes: Inhibition of BRD4 (unknown origin)
Property Measured: pIC50
For clarity, pIC50 is expressed as the negative log10 of concentration in mol/L.

Need pIC50, item `COc1cc(OC)c2c(=O)[nH]c(-c3ccc(OCCOc4ccccc4C(N)=O)cc3)nc2c1`
6.40
